Test system: TK-10 renal
Assay: NCI tumour cell line growth inhibition, 48 h
READOUT_TYPE: TGI

Guide cases for TGI, answers given:
MOLECULE	TGI
CCCC/C=C/C=C/C=C/CCCCCCCC(=O)OCC(COC(=O)CCCCCCC/C=C/C1C=CC(CCCC)C(C(=O)O)C1C(=O)O)OC(=O)CCCCCCC/C=C/C=C/C=C/CCCC (stereo not given) (tested in a mixture with another compound)	37.7 µM
NCCNCCNCCN	> 100 µM
CCNC(=O)c1ccc(C)c(N=NN(C)C)c1	> 100 µM

# next molecule below
What value of TGI on TK-10 renal does O=c1cc(-c2ccc3c(c2)OCO3)[nH]c2cc3c(cc12)OCO3 have?
> 100 µM

====

# TGI listing for each entry below
System: RXF 393 renal
Assay: NCI tumour cell line growth inhibition, 48 h

> print(dat)
                                   compound  tested.system  test.result
1  CC(=O)N[C@@H](Cc1ccc(OP(=O)(O)O)cc1)C(=O)N[C@H]1CCC(=O)N2CCC[C@@H](C(=O)Nc3cccc4ccccc34)N2C1=O  RXF 393 renal      > 25 µM
2  Nc1ncc2c(n1)-c1ccccc1OC2N1CCCCC1 (stereo not drawn)  RXF 393 renal     > 100 µM

# next compound below
Look up TGI for this compound: CC1(C)[C@@H](Cn2cc(I)c(=O)[nH]c2=O)CC[C@@]1(C)CO
> 100 µM

====

Test system: MCF7 breast
Experiment: NCI tumour cell line growth inhibition, 48 h
*1 amine or outer side, *2 acyl side, *3 side chain or, on linkers, in order; H or OH if unused. Where a SMILES comes first, the peptide text is derived from it. Bridges are numbered along the chain shown (N, C = ends). Roman numbers before positions name the chains, in order. [ ]: non-standard residue; d: D form. Actinocin(9to1) = Cc1c2oc3c(C)ccc(C(=O)[*:1])c3nc-2c(C(=O)[*:2])c(N)c1=O; NMeV = CN[CH](C(=O)O)C(C)C; Sar = CNCC(=O)O
# TGI listing for each entry below
Provide the reading as a plain figure in µM.

Guide cases for TGI, answers given:
MOLECULE	TGI (µM)
Cc1c2oc3c(C)ccc(C(=O)NC4C(=O)NC(C(C)C)C(=O)N5CCCC5C(=O)N(C)CC(=O)N(C)C(C(C)C)C(=O)OC4C)c3nc-2c(C(=O)NC2C(=O)NC(C(C)C)C(=O)N3CCCC3C(=O)N(C)CC(=O)N(C)C(C(C)C)C(=O)OC2C)c(N)c1=O (centres undefined) (I: TVP[Sar][NMeV] / II: TVP[Sar][NMeV]; ester I:1-I:C, II:1-II:C; linker I:N-II:N via Actinocin(9to1); configuration not given here)	0.00342
COCCn1cc(-c2nc(-c3cc4cccnc4[nH]3)cs2)c2cc(OC)ccc21	2.67
CCOC(=O)CCC(NC(=O)C(N)Cc1ccc(N(CCCl)CCCl)cc1)C(=O)OCC (centres undefined)	9.5

# next molecule below
Look up TGI for this molecule: O=C(NC1CCCCC1)NS(=O)(=O)c1ccc(N2N=C3c4ccccc4CC3C2c2ccc(Cl)cc2)cc1 (centres undefined)
22.2

====

Tested on: EKVX NSCLC
Assay: NCI tumour cell line growth inhibition, 48 h; in the data active = GI50 below about 0.43 µM; inactive = the rest
Valid outcomes are listed here; reply with one: TRUE = active, FALSE = inactive

Examples from the recorded data:
> print(dat)
                            chemical.string  label.value
1  C/C=C/[C@@H]1O[C@@H]2COC(=O)C2=C[C@@H]1O        FALSE
2       COc1ccccc1NC(=O)c1cc2cc(Br)ccc2cc1O        FALSE
3  Cn1cc(-c2cc3c(N4CCN(c5ncc([C@@](C)(N)c6ccc(F)cc6)cn5)CC4)ncnn3c2)cn1        FALSE

Assay outcome for O=C(Nc1cccc(C(F)(F)F)c1)Nc1cccc(C(F)(F)F)c1 : what was it?
FALSE

Assay outcome for NCCNCCNCCN : what was it?
FALSE

Assay outcome for O=C(Nc1nn2c(-c3cc(C(F)(F)F)cc(C(F)(F)F)c3)nnc2s1)C1CCCC1 : what was it?
TRUE

Assay outcome for COc1cc(-c2nc3sccn3c2-c2ccnc(NCCNS(=O)(=O)c3ccc(F)cc3)n2)ccc1F : what was it?
FALSE

====

# TGI listing for each entry below
Test system: SR leukemia
Test: NCI tumour cell line growth inhibition, 48 h

Guide cases for TGI, answers given:
> print(dat)
                                   compound  readout.type  test.result
1  O=S1C(=c2ccc(=C3Sc4ccccc4S3)cc2)Sc2ccccc21 (configuration not stated)           TGI     > 100 µM
2  C=C(C)C(=O)O[C@@H]1C[C@@]2(C)O[C@@H]2C[C@H](O)/C(C)=C/[C@H]2OC(=O)C(=C)[C@@H]21           TGI     > 100 µM
3                            Br[Se]c1ccccn1           TGI      65.8 µM
4  CCOC(=O)n1cc(C2=C(c3ccc(OC)c(OC)c3)COC2=O)c2ccccc21           TGI     > 100 µM
5  CC[C@@H](c1ccc(O)c(O)c1)[C@@H](CC)c1ccc(O)c(O)c1           TGI     > 100 µM

Look up TGI for this compound: O=c1c(F)cn(Cc2c(Cl)cccc2Cl)c(=O)n1Cc1c(Cl)cccc1Cl
> 31.6 µM

Look up TGI for this compound: O=[N+]([O-])c1ccc2nc(Nc3ccccc3)c(Nc3ccccc3)nc2c1
> 100 µM

====

Tested on: SF-539 CNS
Test: NCI tumour cell line growth inhibition, 48 h; in the data active means GI50 below about 0.43 µM; inactive means the rest
Valid outcomes are listed here; reply with one: active, inactive

Examples from the recorded data:
> print(dat)
                                   molecule  label.value
1  C=C1C[C@H](O)[C@H](Br)C(C)(C)[C@@]12CCC(C)=C(Cl)C2     inactive
2  O=C1OCC2=C1C(c1cccc(Br)c1)c1cc3c(cc1N2CCO)OCCO3 (centres undefined)       active
3  c1ccc(-c2n(Cc3ccc4ccccc4n3)cc[n+]2Cc2ccc3ccccc3c2)cc1     inactive

Okay, next one:
Assay outcome for CC[C@@H](c1ccc(O)c(O)c1)[C@@H](CC)c1ccc(O)c(O)c1 : what was it?
inactive

====

System: MDA-MB-231 breast
Assay: NCI tumour cell line growth inhibition, 48 h; in the data active = GI50 below about 0.43 µM; inactive = the rest
Valid outcomes are listed here; reply with one: TRUE (active), FALSE (inactive)

COMPOUND	LABEL_VALUE
NC(=S)N/N=C\c1nccc2c(C(F)(F)F)cccc12	TRUE
COC(=O)[C@]12CC[C@@H](C)[C@H](C)[C@@H]1C1=CC[C@@H]3[C@@]4(C)C[C@@H](O)[C@H](O)[C@@](C)(CO)[C@@H]4[C@H](O)C[C@@]3(C)[C@]1(C)CC2	FALSE

Assay outcome for COc1ccc(C(c2cc(OC)c(OC)c(OC)c2)n2cncn2)cc1O (stereo not drawn) : what was it?
FALSE

====

System: A549 NSCLC
Test: NCI tumour cell line growth inhibition, 48 h
READOUT_TYPE: TGI

Guide cases for TGI, answers given:
> print(dat)
                                   molecule  readout.type  test.result
1  COc1ccc(C2Oc3cc(OC)c(OC)cc3C2CCl)cc1OC (centres undefined)           TGI     > 100 µM
2  CC1NC(=O)C(C)C(c2ccccc2)N(N=O)C1c1ccccc1 (centres undefined)           TGI     > 100 µM
3      NC(=S)N/N=C\c1nccc2c(C(F)(F)F)cccc12           TGI      3.26 µM
4                    N#Cc1nc(-c2cnccn2)oc1N           TGI     > 100 µM
5               CC(=O)Nc1cc2ccc(=O)oc2cc1Cl           TGI     > 100 µM
6        CCOC(=O)/C(=C/c1ccc(OC)cc1)N(CC)CC           TGI     > 100 µM

Look up TGI for this molecule: CC(=O)[O-].CC(=O)[O-].O=C(N/N=C/c1cc(Cl)cc(Cl)c1O)c1ccncc1.[Cu+2]
> 100 µM

====

System: U251 CNS
Valid outcomes are listed here; reply with one: active, inactive

> print(dat)
                            chemical.string  label.value
1  CCOC(=O)n1cc(C2=C(c3ccc(OC)c(OC)c3)COC2=O)c2ccccc21       active
2  Nc1nc2[nH]cc(CCc3ccc(C(=O)N[C@@H](CCC(=O)O)C(=O)O)cc3)c2c(=O)[nH]1     inactive
3  O=[N+]([O-])c1cc([N+](=O)[O-])c(C(F)(F)F)cc1NN=C(c1ccc(O)cc1)c1ccc(O)cc1     inactive

Okay, next one:
Assay outcome for O=C(Nc1nn2c(-c3cc(C(F)(F)F)cc(C(F)(F)F)c3)nnc2s1)C1CCCC1 : what was it?
inactive
